B1: SAT2 (parent)
chain: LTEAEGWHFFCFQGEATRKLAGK

Variants of: B1
Test: protein stability index of a GFP-peptide fusion (GPS, HEK-293T) (PSI 1-6); higher = more stable;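 note: lentivirally expressed fusions sorted by FACS into six bins by GFP to DsRed ratio, PSI derived from sequencing read proportions per bin multiplied by bin number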
Conditions: c terminus: native
Reported protein stability index values are given for each entry in this list.

SEQUENCE_CHANGE | protein stability index
F10Y | 1.92
Q13R | 1.93
F10I | 2.42
F9K | 4.13
E15K | 3.63
K19I | 2.39
A4T | 2.9
A21H | 3.24
R18A | 2.09
K19T | 2.05
F12C | 3.39
F10A | 3.48
A21I | 3.52
K23R | 1.51
E15C | 2.15
L20D | 2.99
L1T | 2.33
E3H | 1.67
A16E | 2.79
G14I | 4.25
G22L | 1.81
T17C | 1.8
E15N | 1.86
Q13H | 1.56
K19W | 2
A4L | 2.14
K23M | 1.01
F12Y | 2.48
F10N | 3.94
F10S | 4.25
W7R | 3.72
G6S | 2.27
F12R | 2.87
A4D | 2.37
L1R | 2.09
L20T | 3.52
T17F | 1.61
G22W | 2.17
A21F | 1.77
W7G | 3.63
H8D | 3.44
C11I | 1.66
W7P | 4.43
L20Q | 3.29
F10R | 3.28
H8Q | 2.15
